Quick reference: pIC50 of the listed items.
tested on: μ-calpain (Homo sapiens)
Construct: purchased Nakalai Tesque
protocol description: μ-Calpain-inhibitory activity (casein substrate)
Type: biochemical
condition notes: read-out: Calpain 50% inhibitory concentration (IC50); 60 minutes at 30° C., pH 7.4, 4 mM calcium chloride
# reply with the number alone; pIC50 is -log10 of concentration in mol/L

// solved cases for pIC50 follow
CC(=O)NCSC[C@@H](NC(=O)[C@H]1O[C@@H]1C(=O)O)C(=O)N1CCN(c2ccccc2Cl)CC1 [Compound 28]	5.41
COc1ccc(N2CCN(C(=O)[C@H](CC(C)C)NC(=O)[C@H]3O[C@@H]3C(=O)O)CC2)cc1 [Compound 20]	5.92

Lookup result for CCOC(=O)[C@H]1O[C@@H]1C(=O)N[C@@H](CC(C)C)C(=O)N1CCN(c2ccc(F)cc2)CC1 [Compound 3] ; measured pIC50: 4.33

---

Quick reference: pIC50 of the listed items.
tested on: μ-calpain (Homo sapiens)
Construct: purchased Nakalai Tesque
protocol description: μ-Calpain-inhibitory activity (casein substrate)
Format: biochemical
condition notes: 60 minutes at 30° C., pH 7.4, 4 mM calcium chloride
# reply with the number alone; pIC50 is -log10 of concentration in mol/L

// solved cases for pIC50 follow
CC(C)(C)[C@H](NS(=O)(=O)c1ccc2ccccc2c1)C(=O)N[C@H](C=O)Cc1c[nH]c2ccccc12	5.96
CC(C)[C@H](NS(=O)(=O)c1ccc2ccccc2c1)C(=O)N[C@H](C=O)Cc1ccccc1	7.85
CC(C)C[C@H](NC(=O)[C@H]1O[C@@H]1C(=O)O)C(=O)N1CCN(c2ccccc2)CC1	6.11
C[C@H](NC(=O)[C@H]1O[C@@H]1C(=O)O)C(=O)N1CCN(c2ccccc2Cl)CC1	5.29
NC(=O)CC[C@H](NC(=O)[C@H]1O[C@@H]1C(=O)O)C(=O)N1CCN(c2ccccc2Cl)CC1	5.22

Lookup result for CC(C)[C@H](NS(=O)(=O)c1ccc(Cl)cc1)C(=O)N[C@H](C=O)Cc1c[nH]c2ccccc12 ; measured pIC50: 7.89

Lookup result for O=C(O)[C@H]1O[C@@H]1C(=O)NC1(C(=O)N2CCN(c3ccc(F)cc3)CC2)CCCC1 ; measured pIC50: 3.82

---

tested on: cathepsin L (Homo sapiens)
Sequence (P07711 114-333, species assumed): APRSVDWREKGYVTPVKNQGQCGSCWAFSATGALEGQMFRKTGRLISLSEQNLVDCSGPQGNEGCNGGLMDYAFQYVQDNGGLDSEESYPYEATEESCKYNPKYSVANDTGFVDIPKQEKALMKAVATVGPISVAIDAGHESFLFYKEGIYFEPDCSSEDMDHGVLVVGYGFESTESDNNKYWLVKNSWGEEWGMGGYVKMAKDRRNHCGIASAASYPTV
Binary call on IC50 with cut-off 30 nM: strictly below means True, and equality or higher means False.

CCC(C)[C@H](NC(=O)[C@H]1O[C@@H]1C(=O)O)C(=O)N1CCN(c2ccccc2Cl)CC1 (stereo partly drawn)	True

IC50 strictly < 30 nM for this compound? CC(C)C[C@H](NC(=O)[C@H]1O[C@@H]1C(=O)O)C(=O)N1CCN(c2ccccc2Cl)CC1 True

IC50 strictly < 30 nM for this compound? O=C(O)[C@H]1O[C@@H]1C(=O)NCC(=O)N1CCN(c2ccccc2Cl)CC1 False

IC50 strictly < 30 nM for this compound? Cc1ccc(S(=O)(=O)N2CCN(C(=O)[C@H](CC(C)C)NC(=O)[C@H]3O[C@@H]3C(=O)O)CC2)cc1 False

IC50 strictly < 30 nM for this compound? CC(C)C[C@H](NC(=O)[C@H]1O[C@@H]1C(=O)O)C(=O)N1CCN(c2ccc(F)cc2)CC1 True

IC50 strictly < 30 nM for this compound? O=C(O)[C@H]1O[C@@H]1C(=O)N[C@@H](Cc1ccccc1)C(=O)N1CCN(c2ccc(F)cc2)CC1 True

---

Quick reference: IC50 of the listed items.
tested on: papain (Carica papaya)
Sequence (P00784 134-345): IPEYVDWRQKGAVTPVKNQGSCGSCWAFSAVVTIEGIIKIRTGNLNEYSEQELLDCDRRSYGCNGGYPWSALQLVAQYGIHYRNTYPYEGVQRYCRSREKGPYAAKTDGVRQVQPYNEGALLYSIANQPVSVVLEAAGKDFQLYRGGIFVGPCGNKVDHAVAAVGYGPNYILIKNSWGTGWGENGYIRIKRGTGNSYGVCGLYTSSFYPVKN
Give your result in nM as a bare value.

// solved cases for IC50 follow
CC(C)C[C@H](NC(=O)[C@H]1O[C@@H]1C(=O)O)C(=O)N1CCN(c2ccc(F)cc2)CC1	79
O=C(O)[C@H]1O[C@@H]1C(=O)N[C@@H](Cc1ccccc1)C(=O)N1CCN(c2ccc(F)cc2)CC1	110
CCC(C)[C@H](NC(=O)[C@H]1O[C@@H]1C(=O)O)C(=O)N1CCN(c2ccccc2Cl)CC1 (stereo partly drawn)	47
Cc1ccc(S(=O)(=O)N2CCN(C(=O)[C@H](CC(C)C)NC(=O)[C@H]3O[C@@H]3C(=O)O)CC2)cc1	210
CC(C)C[C@H](NC(=O)[C@H]1O[C@@H]1C(=O)O)C(=O)N1CCN(c2ccccc2Cl)CC1	62

Lookup result for O=C(O)[C@H]1O[C@@H]1C(=O)NCC(=O)N1CCN(c2ccccc2Cl)CC1 ; measured IC50: 4000

---

tested on: μ-calpain (Homo sapiens)
Construct: purchased Nakalai Tesque
Sequence (P07384 1-714): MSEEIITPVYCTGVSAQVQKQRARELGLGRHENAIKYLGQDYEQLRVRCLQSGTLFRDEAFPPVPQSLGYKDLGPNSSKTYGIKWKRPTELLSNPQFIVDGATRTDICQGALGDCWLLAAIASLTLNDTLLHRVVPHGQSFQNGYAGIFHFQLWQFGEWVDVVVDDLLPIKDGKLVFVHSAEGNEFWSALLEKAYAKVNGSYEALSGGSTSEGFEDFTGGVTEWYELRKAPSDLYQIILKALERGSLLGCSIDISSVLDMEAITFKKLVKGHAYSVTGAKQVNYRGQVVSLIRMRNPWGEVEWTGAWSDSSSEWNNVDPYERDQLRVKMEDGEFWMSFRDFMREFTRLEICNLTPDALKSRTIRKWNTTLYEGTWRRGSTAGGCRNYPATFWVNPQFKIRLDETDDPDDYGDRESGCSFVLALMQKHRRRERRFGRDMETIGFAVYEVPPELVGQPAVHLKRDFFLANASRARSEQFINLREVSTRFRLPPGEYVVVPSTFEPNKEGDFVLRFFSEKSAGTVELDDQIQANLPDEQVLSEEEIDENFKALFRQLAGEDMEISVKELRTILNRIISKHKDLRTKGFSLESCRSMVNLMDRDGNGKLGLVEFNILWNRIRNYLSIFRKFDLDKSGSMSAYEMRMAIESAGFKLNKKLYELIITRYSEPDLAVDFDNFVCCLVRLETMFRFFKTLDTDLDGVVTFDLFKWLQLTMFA
Sequence (P04632 1-268 partner): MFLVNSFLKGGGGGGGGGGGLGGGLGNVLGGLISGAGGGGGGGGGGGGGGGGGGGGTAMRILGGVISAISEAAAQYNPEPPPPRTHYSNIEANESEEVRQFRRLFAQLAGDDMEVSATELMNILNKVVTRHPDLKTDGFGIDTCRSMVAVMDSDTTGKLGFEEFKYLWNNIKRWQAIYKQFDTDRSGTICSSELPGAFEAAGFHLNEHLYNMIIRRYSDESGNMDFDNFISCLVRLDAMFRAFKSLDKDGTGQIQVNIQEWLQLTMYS
protocol description: μ-Calpain-inhibitory activity (casein substrate)
Type: biochemical
condition notes: 60 minutes at 30° C., pH 7.4, 4 mM calcium chloride
pIC50: −log10 of the molar value.
pIC50 below 6 gives label 0; pIC50 at or above it gives label 1.

CC(C)C[C@H](NC(=O)[C@H]1O[C@@H]1C(=O)O)C(=O)N1CCN(c2cccc(Cl)c2)CC1	label 1
Cc1ccc(S(=O)(=O)N2CCN(C(=O)[C@H](CC(C)C)NC(=O)[C@H]3O[C@@H]3C(=O)NO)CC2)cc1	label 0
O=C(O)[C@H]1O[C@@H]1C(=O)NCC(=O)N1CCN(c2ccccc2Cl)CC1	label 0
CCC[C@H](NS(=O)(=O)c1ccc(F)cc1)C(=O)N[C@H](C=O)CC(C)C	label 1
Cc1ccc(S(=O)(=O)N2CCN(C(=O)[C@H](CC(C)C)NC(=O)[C@H]3O[C@@H]3C(=O)O)CC2)cc1	label 1
CC(C)C[C@@H](C=O)NC(=O)[C@@H](NS(=O)(=O)c1ccc2ccccc2c1)C(C)C	label 1

Quick check, pIC50 >= 6? CC(C)C[C@@H](C=O)NC(=O)[C@@H](NS(=O)(=O)c1ccc(Cl)cc1)C(C)C label 1

---

tested on: μ-calpain (Homo sapiens)
Construct: purchased Nakalai Tesque
Sequence (P07384 1-714): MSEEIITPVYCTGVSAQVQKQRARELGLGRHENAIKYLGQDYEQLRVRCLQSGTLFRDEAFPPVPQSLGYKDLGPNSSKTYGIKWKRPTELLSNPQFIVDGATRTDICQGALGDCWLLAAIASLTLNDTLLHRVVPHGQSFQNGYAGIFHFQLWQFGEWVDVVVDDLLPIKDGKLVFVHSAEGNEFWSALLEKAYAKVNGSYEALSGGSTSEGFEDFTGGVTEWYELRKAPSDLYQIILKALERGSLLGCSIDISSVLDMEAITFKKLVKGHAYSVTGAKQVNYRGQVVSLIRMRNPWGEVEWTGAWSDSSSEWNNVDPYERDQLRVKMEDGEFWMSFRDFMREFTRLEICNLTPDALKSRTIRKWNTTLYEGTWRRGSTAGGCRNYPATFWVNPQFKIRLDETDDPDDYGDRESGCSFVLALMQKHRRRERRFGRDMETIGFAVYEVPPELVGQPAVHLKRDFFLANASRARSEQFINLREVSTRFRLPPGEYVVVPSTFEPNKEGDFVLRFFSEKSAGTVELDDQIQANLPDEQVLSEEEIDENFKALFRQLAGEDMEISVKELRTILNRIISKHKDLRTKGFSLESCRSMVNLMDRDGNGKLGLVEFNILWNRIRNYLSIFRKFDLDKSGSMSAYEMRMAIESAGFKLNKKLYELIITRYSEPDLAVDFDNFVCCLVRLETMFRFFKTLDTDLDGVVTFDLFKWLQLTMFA
Sequence (P04632 1-268 partner): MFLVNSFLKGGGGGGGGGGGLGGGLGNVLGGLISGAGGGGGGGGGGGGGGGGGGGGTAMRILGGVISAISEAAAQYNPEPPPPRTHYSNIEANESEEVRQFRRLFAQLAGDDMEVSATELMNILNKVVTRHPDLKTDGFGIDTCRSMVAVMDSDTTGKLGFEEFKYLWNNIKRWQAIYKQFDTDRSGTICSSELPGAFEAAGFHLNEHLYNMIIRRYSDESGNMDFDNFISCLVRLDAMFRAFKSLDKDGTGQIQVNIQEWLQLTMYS
protocol description: μ-Calpain-inhibitory activity (casein substrate)
Type: biochemical
condition notes: 60 minutes at 30° C., pH 7.4, 4 mM calcium chloride
Binary call on IC50 with cut-off 300 nM: strictly below means 1, and equality or higher means 0.

# example entries with known answers
CC(C)C[C@H](NC(=O)[C@H]1O[C@@H]1C(=O)O)C(=O)N1CCN(S(=O)(=O)N(C)C)CC1 [Compound 15]	0
O=C(O)[C@H]1O[C@@H]1C(=O)NCCC(=O)N1CCN(c2ccccc2Cl)CC1 [Compound 25]	0
CCCC[C@H](NS(=O)(=O)c1ccc(F)cc1)C(=O)N[C@H](C=O)CC(C)C [Compound 40]	1
O=C[C@H](Cc1c[nH]c2ccccc12)NC(=O)C1(NS(=O)(=O)c2ccc3ccccc3c2)CCCCC1 [Compound 50]	0
CCC(C)[C@H](NC(=O)[C@H]1O[C@@H]1C(=O)O)C(=O)N1CCN(c2ccccc2Cl)CC1 (some centres unmarked) [Compound 24]	0

IC50 strictly < 300 nM for this molecule? CC(C)[C@H](NS(=O)(=O)c1ccc(F)cc1)C(=O)N[C@H](C=O)Cc1ccccc1 [Compound 43] 1

IC50 strictly < 300 nM for this molecule? CC(C)[C@H](NS(=O)(=O)c1ccc2ccccc2c1)C(=O)NC(C=O)CC1CCCCC1 (some centres unmarked) [Compound 53] 1

IC50 strictly < 300 nM for this molecule? CSCC[C@H](NC(=O)[C@H]1O[C@@H]1C(=O)O)C(=O)N1CCN(c2ccccc2Cl)CC1 [Compound 29] 0
